experiment: Plasma concentration in mouse at 30 mg/kg, po measured after 1 hr; type: ADME, organism-based
Value Type: concentration at 1 h (µM)
Kindly provide the numeric value in µM only, without the unit symbol.

Per the record, `C[C@H](NS(=O)(=O)c1ccc(-c2sc(-c3nnc(C(C)(C)O)o3)nc2C(=O)N2CCC(F)(F)CC2)c(Cl)c1Cl)C(F)(F)F` has concentration at 1 h of 10.2

Per the record, `CC[C@H](NS(=O)(=O)c1ccc(-c2sc(CC(C)(C)C(=O)O)nc2CC2CCC2)c(C(F)F)c1F)C(F)(F)F` has concentration at 1 h of 52.1

----------
experiment: Cmax in rat at 300 mg/kg, po measured on day 1; format: ADME, organism-based; design: dose 300 mg/kg, route oral; details: in vivo
Value Type: Cmax (µg/mL)
Kindly provide the numeric value in µg/mL only, without the unit symbol.

Per the record, `CC[C@H](NS(=O)(=O)c1ccc(-c2sc(CC(C)(C)C(=O)O)nc2CC2CCC2)c(C(F)F)c1F)C(F)(F)F` has Cmax of 303

----------
experiment: Cmax in rat at 5 mg/kg, po; type: ADME, organism-based; set-up: dose 5 mg/kg, route oral; conditions: in vivo
Assign Cmax to each entry below.
Kindly provide the numeric value in nM only, without the unit symbol.

Per the record, `C[C@H](NS(=O)(=O)c1ccc(-c2sc(-c3nnc(C(C)(C)O)o3)nc2C(=O)N2CCC(F)(F)CC2)c(Cl)c1Cl)C(F)(F)F` has Cmax of 230

Per the record, `C[C@H](NS(=O)(=O)c1ccc(-c2sc(-c3nnc(CC(C)(C)C(=O)O)o3)nc2CC2CCC2)c2ccccc12)C(F)(F)F` has Cmax of 2300

Per the record, `CC(C)(C)NS(=O)(=O)c1ccc(-c2sc(C(=O)N[C@H]3C[C@H](C(=O)O)C3)nc2CC2CCCCC2)c2ccccc12` has Cmax of 220

Per the record, `CC[C@H](NS(=O)(=O)c1ccc(-c2sc(CC(C)(C)C(=O)O)nc2CC2CCC2)c(C(F)F)c1F)C(F)(F)F` has Cmax of 3800

----------
experiment: Cmax in rat at 1000 mg/kg, po measured on day 5; type: ADME, organism-based; set-up: dose 1000 mg/kg, route oral; conditions: in vivo
Value Type: Cmax (ng/mL)
Kindly provide the numeric value in ng/mL only, without the unit symbol.

Per the record, `C[C@H](NS(=O)(=O)c1ccc(-c2sc(-c3nnc(C(C)(C)O)o3)nc2C(=O)N2CCC(F)(F)CC2)c(Cl)c1Cl)C(F)(F)F` has Cmax of 3160

----------
experiment: AUC in rat at 5 mg/kg, po; format: ADME, organism-based; settings: in vivo
Value Type: AUC
Quick note: number first, unit second.

Per the record, `C[C@H](NS(=O)(=O)c1ccc(-c2sc(-c3nnc(CC(C)(C)C(=O)O)o3)nc2CC2CCC2)c2ccccc12)C(F)(F)F` has AUC of 13100 ng·h/mL

Per the record, `CC(C)(C)NS(=O)(=O)c1ccc(-c2sc(C(=O)N[C@H]3C[C@H](C(=O)O)C3)nc2CC2CCCCC2)c2ccccc12` has AUC of 302 ng·h/mL

Per the record, `CC[C@H](NS(=O)(=O)c1ccc(-c2sc(CC(C)(C)C(=O)O)nc2CC2CCC2)c(C(F)F)c1F)C(F)(F)F` has AUC of 32700 ng·h/mL

Per the record, `C[C@H](NS(=O)(=O)c1ccc(-c2sc(-c3nnc(C(C)(C)O)o3)nc2C(=O)N2CCC(F)(F)CC2)c(Cl)c1Cl)C(F)(F)F` has AUC of 1570 ng·h/mL
